Task for the reader: assign each of the following compounds its reported IC50.
MEASURED_ON: UDP-3-O-acyl-N-acetylglucosamine deacetylase (Pseudomonas aeruginosa (strain ATCC 15692 / PAO1 / 1C / PRS 101 / LMG12228), UniProt P47205)
Sequence (P47205 whole entry): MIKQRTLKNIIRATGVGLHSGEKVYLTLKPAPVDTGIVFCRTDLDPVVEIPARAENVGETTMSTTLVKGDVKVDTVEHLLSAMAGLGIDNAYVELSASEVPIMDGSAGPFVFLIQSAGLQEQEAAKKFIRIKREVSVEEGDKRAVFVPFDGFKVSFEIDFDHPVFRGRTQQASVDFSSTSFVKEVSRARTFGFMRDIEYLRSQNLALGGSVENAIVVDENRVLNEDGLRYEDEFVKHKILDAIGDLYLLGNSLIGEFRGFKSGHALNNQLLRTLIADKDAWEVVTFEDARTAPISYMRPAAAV
PROCEDURE_TEXT: At the end of 1 hour, 5 ul of 1N HCl was added to stop the enzyme reaction; the plates were centrifuged, and then processed with the BioTrove Rapidfire HTMS Mass Spectrometry System.
I only need the number, in nM, no unit after it.

Prompt: I am curious: what IC50 value has been reported for CC(CCc1ccc(OCCc2ccccc2)cc1)(C(=O)NO)S(C)(=O)=O (stereo not drawn) ?
Response: 4.03

Prompt: Return reported IC50; argument: CC(CCc1ccc(OCCOc2ccccc2)cc1)(C(=O)NO)S(C)(=O)=O (stereo not drawn)
Response: 1.52

Prompt: What value of measured IC50 is listed for CC(CCc1ccc(OCCC2CC2)cc1)(C(=O)NO)S(C)(=O)=O (racemic) ?
Response: 1.36

Prompt: // returns reported IC50 for input CC(CCc1ccc(OCCc2ccncc2)cc1)(C(=O)NO)S(C)(=O)=O (stereo not drawn)
Response: 13.7

Prompt: Name the reported IC50 value associated with the compound CC(CCc1ccc(OCCC2CCCC2)cc1)(C(=O)NO)S(C)(=O)=O (stereo not drawn)
Response: 1.27

Prompt: Name the recorded IC50 for Cc1cccc(COc2ccc(CCC(C)(C(=O)NO)S(C)(=O)=O)cc2)c1F (stereo not drawn) .
Response: 0.525

Prompt: Entry CC(CCc1ccc(OCCC2CCCCC2)cc1)(C(=O)NO)S(C)(=O)=O (stereo not drawn) : reported IC50 = ?
Response: 2.79

Prompt: Consider the compound CC(CCc1ccc(OCC2CCC2)cc1)(C(=O)NO)S(C)(=O)=O (stereo not drawn) and give its measured IC50.
Response: 3.28
